target: GHSR1a (Homo sapiens, UniProt Q92847); construct: expressed in transfected cells; host or cells: HEK293; experiment: Calcium FLIPR assay, GHSR-1a antagonism (reduction of ghrelin response); type: cell-based; conditions: HEK293/GHSR1a cells, ghrelin 10 nM
Sequence (Q92847 whole entry): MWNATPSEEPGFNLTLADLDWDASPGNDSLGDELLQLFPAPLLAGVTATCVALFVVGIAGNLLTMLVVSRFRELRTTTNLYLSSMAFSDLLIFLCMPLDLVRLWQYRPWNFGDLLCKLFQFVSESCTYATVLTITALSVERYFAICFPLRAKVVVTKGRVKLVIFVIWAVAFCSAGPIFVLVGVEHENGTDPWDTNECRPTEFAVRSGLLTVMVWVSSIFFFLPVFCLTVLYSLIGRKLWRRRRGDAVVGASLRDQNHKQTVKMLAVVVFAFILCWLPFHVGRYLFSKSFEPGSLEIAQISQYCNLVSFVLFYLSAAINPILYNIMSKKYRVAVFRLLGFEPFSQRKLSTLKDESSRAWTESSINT
pIC50: −log10 of the molar value.
Quantity Measured: pIC50

INSERT INTO results (compound, quantity_measured, result_qualifier, recorded_value) VALUES
  ('CC(NC(=O)N(C)C1CCN(C)CC1)c1ccc(-c2cnc(O)nc2)c(Cl)c1Cl (stereo not shown)', 'pIC50', '=', 6.23),
  ('CC(NC(=O)N(C)C1CCN(C)CC1)c1ccc(/C=C/c2cccs2)c(Cl)c1Cl (stereo not shown)', 'pIC50', '=', 7.43),
  ('CC(NC(=O)N(C)C1CCN(C)CC1)c1ccc(-c2cncc(-c3ccsc3)c2)c(Cl)c1Cl (stereo not shown)', 'pIC50', '=', 7.08),
  ('CC(NC(=O)N(C)C1CCN(C)CC1)c1ccc(-c2cncc(CF)c2)c(Cl)c1Cl (stereo not shown)', 'pIC50', '=', 7.24),
  ('CC(NC(=O)N(C)C1CCCCC1)c1ccc(-c2cncnc2)c(Cl)c1Cl (stereo not shown)', 'pIC50', '=', 5.96),
  ('CC(NC(=O)N(C)C1CCN(C)CC1)c1ccc(-c2cnc(CO)cn2)c(Cl)c1Cl (stereo not shown)', 'pIC50', '=', 6.15),
  ('C#Cc1ccc(C(C)NC(=O)N(C)C2CCN(C)CC2)c(Cl)c1Cl (single isomer, unassigned) [Compound H0677]', 'pIC50', '=', 8.30),
  ('COC(=O)C(NC(=O)N(C)C1CCN(C)CC1)c1ccc(-c2cncnc2)c(Cl)c1Cl (stereo not shown)', 'pIC50', '≤', 6.00),
  ('CC(NC(=O)N(C)C1CCN(C)C1)c1ccc(-c2ccsc2)c(Cl)c1Cl (stereo not shown)', 'pIC50', '=', 8.40),
  ('CC(NC(=O)N(C)C1CCN(C)CC1)c1ccc(Br)c2ccccc12 (stereo not shown)', 'pIC50', '=', 7.44),
  ('CC[C@H](NC(=O)N(C)C1CCN(C)CC1)c1ccc(-c2cnccn2)c(Cl)c1Cl', 'pIC50', '=', 8.52),
  ('CC(NC(=O)N(C)C1CCN(C)CC1)c1ccc(-c2cscn2)c(Cl)c1Cl (stereo not shown)', 'pIC50', '=', 8.05),
  ('CC(NC(=O)N(C)C1CCN(C)CC1)c1ccc(C#CC2CC2)c(Cl)c1Cl (single isomer, unassigned) [Compound H0819]', 'pIC50', '=', 7.19),
  ('CC(NC(=O)N(C)C1CCN(C)CC1)c1ccc(-c2cc(F)cc(F)c2)c(Cl)c1Cl (stereo not shown)', 'pIC50', '=', 7.51),
  ('CC(NC(=O)N(C)C1CCN(C)CC1)c1ccc(-c2csc(N)n2)c(Cl)c1Cl (stereo not shown)', 'pIC50', '=', 8.52),
  ('CC(NC(=O)N(Cc1ccccc1)C1CCN(C)CC1)c1ccc(-c2cnccn2)c(Cl)c1Cl (stereo not shown)', 'pIC50', '=', 8.00);
